Reference for the values: paper PMC4166484

Experiment: Pharmacokinetic study, intraperitoneal
Format: in vivo, Sprague-Dawley rats
Settings: male, Sprague-Dawley, rat, plasma, ip, 20 mg/kg, MRT(0-t), Rat 3, 20mg/kg i.p.
property-name: MRT last (h)
Provide only the numeric value, understood in h.

Enquiry: Which MRT last is reported for this compound? Cc1ccc(C)c(COc2cc(NC(=O)c3ccc4c(c3)OCO4)ccc2N(C)S(C)(=O)=O)c1 [Compound 10]
Return: 5.62

* * *

Assay: Pharmacokinetic study, intraperitoneal
Format: in vivo, Sprague-Dawley rats
Details: male, Sprague-Dawley, rat, plasma, ip, 20 mg/kg, AUC(0-t), Rat 2, 20mg/kg i.p.
property-name: AUC(0-t) (ng·h/mL)
Provide only the numeric value, understood in ng·h/mL.

Enquiry: Which AUC(0-t) is reported for this molecule? Cc1ccc(C)c(COc2cc(NC(=O)c3ccc4c(c3)OCO4)ccc2N(C)S(C)(=O)=O)c1 [Compound 10]
Return: 22600
